These data points were gathered from the supplement of paper PMC3334620.

Measured Target: Yer184c (UniProt P39961)
Sequence: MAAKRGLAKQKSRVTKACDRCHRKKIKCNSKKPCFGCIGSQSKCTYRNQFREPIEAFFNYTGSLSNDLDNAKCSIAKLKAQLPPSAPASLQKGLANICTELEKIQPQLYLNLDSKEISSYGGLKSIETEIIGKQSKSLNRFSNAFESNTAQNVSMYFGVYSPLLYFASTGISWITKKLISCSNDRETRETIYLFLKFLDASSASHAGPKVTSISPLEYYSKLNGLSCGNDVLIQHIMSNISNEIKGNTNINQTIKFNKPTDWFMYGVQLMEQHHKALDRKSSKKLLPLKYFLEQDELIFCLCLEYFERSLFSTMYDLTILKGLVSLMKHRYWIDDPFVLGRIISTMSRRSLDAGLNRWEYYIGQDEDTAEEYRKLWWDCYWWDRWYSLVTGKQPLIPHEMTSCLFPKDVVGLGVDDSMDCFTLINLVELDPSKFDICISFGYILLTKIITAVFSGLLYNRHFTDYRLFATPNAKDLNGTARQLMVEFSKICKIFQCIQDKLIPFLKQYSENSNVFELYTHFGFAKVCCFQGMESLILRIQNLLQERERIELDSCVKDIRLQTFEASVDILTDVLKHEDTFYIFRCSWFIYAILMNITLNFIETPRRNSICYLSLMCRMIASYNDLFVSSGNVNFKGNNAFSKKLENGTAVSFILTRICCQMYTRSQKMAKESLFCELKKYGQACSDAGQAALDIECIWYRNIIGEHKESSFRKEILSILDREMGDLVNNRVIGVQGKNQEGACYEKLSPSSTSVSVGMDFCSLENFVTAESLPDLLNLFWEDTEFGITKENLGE
Method Description: PBM E-score (8-mer binding enrichment) (E-score (-0.5 to 0.5)); higher = stronger / more preferred TF binding
Condition: protein concentration: 100 nM; construct: GST-full length
In all, about 33,000 sequences were measured (“E-score (-0.5 to 0.5)”: median about -0.016, highest 2% from about 0.3 on). The entries come from a sample that favours the highest values as a whole.
Quantity Measured: PBM E-score

INSERT INTO measurements (residue_sequence, measured_target, measurement) VALUES
  ('GCACTACA', 'Yer184c (UniProt P39961)', -0.142),
  ('ATTGTTTC', 'Yer184c (UniProt P39961)', 0.324),
  ('TACGCCGA', 'Yer184c (UniProt P39961)', 0.237),
  ('AGGAATTG', 'Yer184c (UniProt P39961)', -0.0124),
  ('AACGCCGT', 'Yer184c (UniProt P39961)', 0.119),
  ('ATTGTTCC', 'Yer184c (UniProt P39961)', 0.267),
  ('CCCCGGAA', 'Yer184c (UniProt P39961)', 0.151),
  ('AATCCGTA', 'Yer184c (UniProt P39961)', 0.0372),
  ('CATCCGCC', 'Yer184c (UniProt P39961)', 0.0602),
  ('ATTGTTCG', 'Yer184c (UniProt P39961)', 0.346),
  ('CTCCCGGA', 'Yer184c (UniProt P39961)', 0.243),
  ('TCGCTGCA', 'Yer184c (UniProt P39961)', -0.0505),
  ('CATCCGGC', 'Yer184c (UniProt P39961)', 0.358),
  ('GGTCCGCA', 'Yer184c (UniProt P39961)', 0.151),
  ('AATTGTCG', 'Yer184c (UniProt P39961)', 0.035),
  ('GTCCCGGA', 'Yer184c (UniProt P39961)', 0.318),
  ('CTCTCCCA', 'Yer184c (UniProt P39961)', -0.211),
  ('GTCTTAAC', 'Yer184c (UniProt P39961)', -0.122),
  ('ACAAGAAG', 'Yer184c (UniProt P39961)', 0.048),
  ('AGTAGCAT', 'Yer184c (UniProt P39961)', -0.0361),
  ('AGTCCGGC', 'Yer184c (UniProt P39961)', 0.289),
  ('GGTCCGGA', 'Yer184c (UniProt P39961)', 0.376),
  ('ACCATCAG', 'Yer184c (UniProt P39961)', -0.101),
  ('CATCGGCC', 'Yer184c (UniProt P39961)', 0.115),
  ('CTTGTTTC', 'Yer184c (UniProt P39961)', 0.0564),
  ('CAAAGGGA', 'Yer184c (UniProt P39961)', -0.166),
  ('AACGCCGC', 'Yer184c (UniProt P39961)', 0.116),
  ('ACCGTGAG', 'Yer184c (UniProt P39961)', -0.158),
  ('ACCCGGAT', 'Yer184c (UniProt P39961)', 0.185),
  ('ACCTTCAT', 'Yer184c (UniProt P39961)', -0.00129),
  ('AACGCCGA', 'Yer184c (UniProt P39961)', 0.415),
  ('GGCTATCA', 'Yer184c (UniProt P39961)', 0.131),
  ('CTTCTTGA', 'Yer184c (UniProt P39961)', -0.0452),
  ('CGTCCGGA', 'Yer184c (UniProt P39961)', 0.323),
  ('CATGGTAC', 'Yer184c (UniProt P39961)', -0.223),
  ('TACAGTCA', 'Yer184c (UniProt P39961)', -0.0508),
  ('GGTCCGTA', 'Yer184c (UniProt P39961)', 0.178),
  ('CACGCCGA', 'Yer184c (UniProt P39961)', 0.153),
  ('AATCCGGA', 'Yer184c (UniProt P39961)', 0.401),
  ('GCAGGGCA', 'Yer184c (UniProt P39961)', -0.0295),
  ('GTCCCCGA', 'Yer184c (UniProt P39961)', -0.142),
  ('AATACTGT', 'Yer184c (UniProt P39961)', 0.188),
  ('AGCGGTGC', 'Yer184c (UniProt P39961)', -0.168),
  ('ATTGTCCA', 'Yer184c (UniProt P39961)', 0.143),
  ('AACGCCGG', 'Yer184c (UniProt P39961)', 0.317),
  ('CAGAGCAA', 'Yer184c (UniProt P39961)', 0.108);
